- Tgt: human vasopressin V2 receptor subtype (Homo sapiens)
- Construct: host or cells: CHO cells (pZeoSV vector)
- Sequence (P30518 whole entry): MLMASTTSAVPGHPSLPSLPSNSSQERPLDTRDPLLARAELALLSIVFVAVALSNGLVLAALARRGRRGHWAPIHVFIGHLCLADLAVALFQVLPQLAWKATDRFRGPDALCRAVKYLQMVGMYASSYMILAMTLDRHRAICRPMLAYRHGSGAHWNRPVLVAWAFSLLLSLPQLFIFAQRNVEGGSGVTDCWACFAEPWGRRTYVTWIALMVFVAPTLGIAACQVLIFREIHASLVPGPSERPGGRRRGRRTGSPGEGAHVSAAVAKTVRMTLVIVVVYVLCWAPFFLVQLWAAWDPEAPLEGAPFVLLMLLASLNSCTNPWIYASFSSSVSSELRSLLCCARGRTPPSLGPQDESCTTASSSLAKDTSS
- Test Description: Vasopressin binding in Chinese Hamster Ovary cell membranes expressing human vasopressin V2 subtype receptors
- Measurement Setup: 100 nM, CHO cell membranes, [3H]arginine vasopressin, values without parentheses
Below, each entry is listed with its recorded inhibition at 0.1 µM.
Report the figure in % without appending any unit label.

Observe how each entry below is paired with its result.
                                   molecule  unit_tag  value_reported
0  COc1cc(C(=O)N2Cc3ccc(C(=O)N(C)CCN(C)C)n3Cc3ccccc32)ccc1-c1cccc2ccccc12 [Example 93]         %              36
1  COc1cc(C(=O)N2Cc3ccc(C(=O)NCCCn4ccnc4)n3Cc3ccccc32)ccc1-c1cccc2ccccc12 [Example 131]         %              13
2  COc1ccccc1-c1ccc(C(=O)N2Cc3ccc(C(=O)n4ccnc4)n3Cc3ccccc32)cc1OC [Example 293]         %               3
3  COc1cc(C(=O)N2Cc3ccc(C(=O)N4CCC(N5CCCC5)CC4)n3Cc3ccccc32)ccc1-n1c(C)ccc1C [Example 313]         %               2
4  COc1ccccc1-c1ccc(C(=O)N2Cc3ccc(C(=O)N4CCN(CCN(C)C)CC4)n3Cc3ccccc32)cc1OC [Example 204]         %               6
5  Cc1cc(C(=O)N2Cc3ccc(C(=O)N4CCN(CCN5CCOCC5)CC4)n3Cc3ccccc32)ccc1-c1ccccc1C(F)(F)F [Example 216]         %               0
6  COc1cccc(-c2cc(OC)c(C(=O)N3Cc4ccc(C(=O)NCCCn5ccnc5)n4Cc4ccccc43)cc2Cl)c1 [Example 130]         %               5
7  Cc1ccccc1-c1ccc(C(=O)N2Cc3ccc(C(=O)N4CCN(C)CC4)n3Cc3ccccc32)cc1 [Example 52]         %              17
8  COc1ccccc1-c1ccc(C(=O)N2Cc3ccc(C(=O)N[C@H]4CN5CCC4CC5)n3Cc3ccccc32)cc1 [Example 296]         %              24
9  COc1cccc(-c2ccc(C(=O)N3Cc4ccc(C(=O)N5CCN(C)CC5)n4Cc4ccccc43)cc2C)c1 [Example 51]         %              17

Query COc1cc(C(=O)N2Cc3ccc(C(=O)N4CCN(CCCN(C)C)CC4)n3Cc3ccccc32)ccc1-c1ccccc1C [Example 250] yields inhibition at 0.1 µM of -10

Query Cc1ccccc1-c1ccc(C(=O)N2Cc3ccc(C(=O)N4CCN(C)CC4)n3Cc3ccccc32)cc1C [Example 50] yields inhibition at 0.1 µM of 15

Query COc1cccc(-c2ccc(C(=O)N3Cc4ccc(C(=O)N5CCC(N6CCCCC6)CC5)n4Cc4ccccc43)cc2OC)c1 [Example 120] yields inhibition at 0.1 µM of 6

Query Cc1ccccc1-c1ccc(C(=O)N2Cc3ccc(C(=O)NCCC4CCCN4C)n3Cc3ccccc32)cc1C (stereo not drawn) [Example 163] yields inhibition at 0.1 µM of 13

Query C=CCN1CCN(C(=O)c2ccc3n2Cc2ccccc2N(C(=O)c2ccc(-c4cccc(OC)c4)c(OC)c2)C3)CC1 [Example 228] yields inhibition at 0.1 µM of 20
